Provide the recorded pIC50 for the entries that follow.
- target_under_test: human CYP11B2 (Homo sapiens, UniProt P19099)
- Construct: expressed in transfected cells; host or cells: V79MZh cells
- Sequence (P19099 25-503): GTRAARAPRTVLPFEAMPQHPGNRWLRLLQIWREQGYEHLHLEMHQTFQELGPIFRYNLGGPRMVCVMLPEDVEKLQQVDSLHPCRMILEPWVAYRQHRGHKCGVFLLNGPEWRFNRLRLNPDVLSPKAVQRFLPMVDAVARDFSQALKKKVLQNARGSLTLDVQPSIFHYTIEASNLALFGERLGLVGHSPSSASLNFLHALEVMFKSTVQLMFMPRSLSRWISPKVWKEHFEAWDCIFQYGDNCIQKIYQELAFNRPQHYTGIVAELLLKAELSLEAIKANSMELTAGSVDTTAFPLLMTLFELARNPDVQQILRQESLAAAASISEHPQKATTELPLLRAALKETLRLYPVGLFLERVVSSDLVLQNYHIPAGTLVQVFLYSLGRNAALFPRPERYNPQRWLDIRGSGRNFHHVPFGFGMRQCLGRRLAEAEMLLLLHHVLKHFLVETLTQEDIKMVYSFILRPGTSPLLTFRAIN
- measurement_description: Inhibition of CYP11B2 in V79 MZh cells expressing the enzyme
- Assay type: cell-based
- measurement_conditions: Hamster fibroblasts (V79 MZh) expressing human CYP11B2; substrate deoxycorticosterone, 100 nM; read-out: 11B2 IC50
Entry type: numeric. Quantity: pIC50, the -log10 of concentration in molar units.

Return pIC50 for the following compound: OC1CCCC(c2cccnc2)CCC1 (stereo not drawn) [Compound 10, (endo/exo)-5-Pyridin-3-yl-cyclooctanol]
6.53

Quickly give me recorded pIC50 for "O=C1CCC=C(c2cccnc2)CCC1"
6.69

Give the measured pIC50 for "C1=C(c2cccnc2)CCCCCCCC1"
7.68

Given O=C1CC2CC(c3cccnc3)CC2C1 (stereo not shown) [Compound 3, 5-Pyridin-3-yl-hexahydro-pentalen-2-one] , respond with its pIC50.
6.59
